# target_of_assay: CD28 (Homo sapiens, UniProt P10747)
# assay_summary: Flow binding to Jurkat/IL2 reporter cells (CD28)
# Set-up: host or cells: Jurkat cells expressing an IL-2-luciferase reporter
# condition_notes: Table E23; CD80 IgV-Fc (inert) at 33.3 nM; Jurkat (CD28)

molecule	CD28 MFI at 33.3 nM
H18V/A26D/E35D/M47V/V68M/A71G/D90G (protein, UniProt P33681 35-288, looked up, variant H18V A26D E35D M47V V68M A71G D90G, Fc fusion) T-lymphocyte activation …: VIHVTKEVKEVATLSCGVNVSVEELDQTRIYWQKDKKMVLTMMSGDVNIWPEYKNRTIFDITNNLSIMILGLRPSDEGTYECVVLKYEKGAFKREHLAEVTLSVKADFPTPSISDFEIPTSNIRRIICSTSGGFPEPHLSWLENGEELNAINTTVSQDPETELYAVSSKLDFNMTTNHSFMCLIKYGHLRVNQTFNWNTTKQEHFPDNLLPSWAITLISVNGIFVICCLTYCFAPRCRERRRNERLRRESVRPV	6253
